# study-target: T1, 人CX3CL1胞外区蛋白 CX3CL1(Q25-Q341)-6xHis (human, UniProt P78423 25-341)
# T1 sequence: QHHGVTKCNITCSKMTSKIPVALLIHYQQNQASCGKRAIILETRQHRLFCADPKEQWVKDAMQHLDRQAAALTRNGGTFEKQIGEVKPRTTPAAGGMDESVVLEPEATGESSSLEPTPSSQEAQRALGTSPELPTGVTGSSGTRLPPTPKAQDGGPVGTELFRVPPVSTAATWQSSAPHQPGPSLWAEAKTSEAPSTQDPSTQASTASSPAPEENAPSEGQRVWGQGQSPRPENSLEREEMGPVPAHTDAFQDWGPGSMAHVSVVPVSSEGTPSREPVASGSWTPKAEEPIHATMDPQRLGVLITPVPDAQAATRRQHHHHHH
# method-description: cell-based or functional assay
As shown below, each of these binders has a reported 抑制细胞迁移活性 IC50 value.
Numeric answer only, unit nM assumed.

Check out these entries, answers already filled in.
{"binder": "HumAb022-4 (antibody, human IgG2, kappa, V domains shown, Full-length humanized IgG2/kappa antibody) VH: EVQLVQSGAEVKKPGATVKISCKASGYTFTDYYMNWVQQAPGKSLEWMGDINPNQGGTNYNQKFKGRVTLTVDKSTSTAYMELSSLRSEDTAVYYCASSGNSYVDYWGQGTTVTVSS VL: DIQMTQSPSSLSASVGDRVTITCKASQDVSTAVAWYQQKPGKAPKLLLYWASTRHTGVPSRFSGSGSGTDYTLTISSLQPEDFATYYCQQHYSSPYTFGGGTKVEIKR", "units-label": "nM", "抑制细胞迁移活性 IC50": 0.299}
{"binder": "mAb032 (antibody, V domains shown, Murine monoclonal antibody purified from hybridoma supernatant; also called 18H6F1) VH: EVQLQQSGPELVKPGASVKISCKASGYTFTDYYMNWVKQSHGKSLEWIGDINPNNGGTSYNQKFKGKATLTVDKSSSTAYMELRSLTSEDSAVYYCASSGNSYVDYWGQGTTLTVSS VL: DIVMTQSHKFMSTSVGDRVSITCKASQDVSTAVAWYQQKPGQSPKLLIYWASTRHTGVPDRFTGSGSGTDYTLTISSVQAEDLALYYCQQHYSSPYTFGGGTKLEIK", "units-label": "nM", "抑制细胞迁移活性 IC50": 8.72}
{"binder": "Tab#1 (antibody, human IgG2, kappa, V domains shown, also called Quetmolimab; CX3CL1阳性对照抗体) VH: QVQLVQSGAEVKKPGASVKVSCKASGYTFTNYYIHWVKQAPGQGLEWIGWIYPGDGSPKFNERFKGRTTLTADKSTNTAYMLLSSLRSEDTAVYFCATGPTDGDYFDYWGQGTTVTVSS VL: DIQMTQSPSSLSASVGDRVTITCRASGNIHNFLAWYQQKPGKAPKLLIYNEKTLADGVPSRFSGSGSGTDYTLTISSLQPEDFATYFCQQFWSTPYTFGGGTKVEIKR", "units-label": "nM", "抑制细胞迁移活性 IC50": 19}

Now consider the entry below.
I have this binder here, mAb022 (antibody, V domains shown, Murine monoclonal antibody purified from hybridoma supernatant; also called 15F7B2) VH: EVQLQQSGPELVKPGASVKISCKASGYTFTDYYMNWVKQSHGKSLEWIGDINPNNGGTNYNQKFKGKATLTVDKSSSTAYMELRSLTSEDSAVFYCASSGNSYVDYWGQGTTLTVSS VL: DIVMTQSHKFMSTSVGDRVNITCKASQDVSTAVAWYQQKPGQSPKLLIYWASTRHTGVPDRFTGSGSGTDYTLTISSVQAEDLALYYCQQHYSSPYTFGGGTKLEIK , and I need its recorded 抑制细胞迁移活性 IC50.
7.19
